Each recorded value in this set is attributed to ChEMBL document CHEMBL1133105.

For each entry below, report its cytotoxicity at 3.13 µM value.
- Test system: MRC5
- measurement.protocol: Cytotoxicity on MRC-5 cells at 3.13 uM
- Assay type: functional
- experimental.context: Homo sapiens
# value in %; strip the unit string

Please give the measured cytotoxicity at 3.13 µM for this compound: COc1ccc2nc3cc(Cl)ccc3c(NCCCN(CCCNc3c4ccc(Cl)cc4nc4ccc(OC)cc34)C(=O)C(CC(=O)OC3CCCCC3)NC(=O)OC(C)(C)C)c2c1 (stereo unspecified) 40

Moving on to COc1ccc2nc3cc(Cl)ccc3c(NCCCN(CCCNc3c4ccc(Cl)cc4nc4ccc(OC)cc34)C(=O)CCN3CCN(C)CC3)c2c1 40

Continue with COc1ccc2nc3cc(Cl)ccc3c(NCCCN(CCCNc3c4ccc(Cl)cc4nc4ccc(OC)cc34)C(=O)C(CC(=O)OCC3c4ccccc4-c4ccccc43)NC(=O)OC(C)(C)C)c2c1 (stereo unspecified) 0

Also COc1ccc2nc3cc(Cl)ccc3c(NCCCN3CCN(CCCNc4c5ccc(Cl)cc5nc5ccc(OC)cc45)CC3)c2c1 , if possible. 0

How about COc1ccc2nc3cc(Cl)ccc3c(NCCCCNc3c4ccc(Cl)cc4nc4ccc(OC)cc34)c2c1 ? 100

Then this compound: COc1ccc2nc3cc(Cl)ccc3c(NCCCN(CCCNc3c4ccc(Cl)cc4nc4ccc(OC)cc34)C(=O)CCN3CCCC3)c2c1 37

###

- System: Leishmania infantum
- measurement.protocol: Percentage of activity against Leishmania infantum at 3.13 uM
- Assay type: functional
assay.endpoint: Percent antileishmanial activity (reduction of parasite load) (%)
Return type: number; implicit unit %.

Quick one: Percent antileishmanial activity (reduction of parasite load) of COc1ccc2nc3cc(Cl)ccc3c(NCCCN3CCN(CCCNc4c5ccc(Cl)cc5nc5ccc(OC)cc45)CC3)c2c1 ? 0

Queued: COc1ccc2nc3cc(Cl)ccc3c(NCCCN(CCCNc3c4ccc(Cl)cc4nc4ccc(OC)cc34)C(=O)C(CC(=O)OC3CCCCC3)NC(=O)OC(C)(C)C)c2c1 (configuration not stated) 60

Another: COc1ccc2nc3cc(Cl)ccc3c(NCCCCCCCCCCNc3c4ccc(Cl)cc4nc4ccc(OC)cc34)c2c1 70

Next record, please: COc1ccc2nc3cc(Cl)ccc3c(NCCCN(CCCNc3c4ccc(Cl)cc4nc4ccc(OC)cc34)C(=O)C(CO)NC(=O)OC(C)(C)C)c2c1 (configuration not stated) 0

How about COc1ccc2nc3cc(Cl)ccc3c(NCCCN(CCCNc3c4ccc(Cl)cc4nc4ccc(OC)cc34)C(=O)C(CCCCN)NC(=O)OC(C)(C)C)c2c1 (configuration not stated) ? 0

And COc1ccc2nc3cc(Cl)ccc3c(NCCCCCCCCCCCCNc3c4ccc(Cl)cc4nc4ccc(OC)cc34)c2c1 ? 40

# iterate: COc1ccc2nc3cc(Cl)ccc3c(NCCCN(CCCNc3c4ccc(Cl)cc4nc4ccc(OC)cc34)C(=O)C(CC(=O)OCC3c4ccccc4-c4ccccc43)NC(=O)OC(C)(C)C)c2c1 (configuration not stated) 0

###

- System: Trypanosoma cruzi
- measurement.protocol: Percentage of activity against Trypanosoma cruzi at 6.25 uM Concentration
- Type: functional
assay.endpoint: Reduction of T. cruzi parasite load (%)
Write the number in % without appending the unit.

Need Reduction of T. cruzi parasite load, item COc1ccc2nc3cc(Cl)ccc3c(NCCCCCCNc3c4ccc(Cl)cc4nc4ccc(OC)cc34)c2c1 40

Follow-up entry: COc1ccc2nc3cc(Cl)ccc3c(NCCCN3CCN(CCCNc4c5ccc(Cl)cc5nc5ccc(OC)cc45)CC3)c2c1 0

Try the molecule COc1ccc2nc3cc(Cl)ccc3c(NCCCN(CCCNc3c4ccc(Cl)cc4nc4ccc(OC)cc34)C(=O)CNC(=O)C(C)NC(=O)OC(C)(C)C)c2c1 (configuration not stated) 40

Try COc1ccc2nc3cc(Cl)ccc3c(NCCCCCCCCCCNc3c4ccc(Cl)cc4nc4ccc(OC)cc34)c2c1 next. 70

Same read-out for COc1ccc2nc3cc(Cl)ccc3c(NCCCN(CCCNc3c4ccc(Cl)cc4nc4ccc(OC)cc34)C(=O)C(COC(C)=O)NC(=O)OC(C)(C)C)c2c1 (configuration not stated) ? 40

Thanks! And COc1ccc2nc3cc(Cl)ccc3c(NCCCN(CCCNc3c4ccc(Cl)cc4nc4ccc(OC)cc34)C(=O)C(C)N)c2c1 (configuration not stated) ? 0

Same question for COc1ccc2nc3cc(Cl)ccc3c(NCCCN(CCCNc3c4ccc(Cl)cc4nc4ccc(OC)cc34)C(=O)C(COCc3ccccc3)NC(=O)OC(C)(C)C)c2c1 (configuration not stated) please. 80

Same for COc1ccc2nc3cc(Cl)ccc3c(NCCCN(CCCNc3c4ccc(Cl)cc4nc4ccc(OC)cc34)C(=O)C(CO)NC(=O)OC(C)(C)C)c2c1 (configuration not stated) 20

Also check COc1ccc2nc3cc(Cl)ccc3c(NCCCN(CCCNc3c4ccc(Cl)cc4nc4ccc(OC)cc34)C(=O)C(CCCCN)NC(=O)OC(C)(C)C)c2c1 (configuration not stated) 90

What do you get for COc1ccc2nc3cc(Cl)ccc3c(NCCCN(CCCNc3c4ccc(Cl)cc4nc4ccc(OC)cc34)C(=O)C(CCCCNC(=O)OCC3c4ccccc4-c4ccccc43)NC(=O)OC(C)(C)C)c2c1 (configuration not stated) ? 80

Follow-up entry: COc1ccc2nc3cc(Cl)ccc3c(NCCCN(CCCNc3c4ccc(Cl)cc4nc4ccc(OC)cc34)C(=O)C(CNC(=O)OC(C)(C)C)NC(=O)OC(C)(C)C)c2c1 (configuration not stated) 80

Again, but for COc1ccc2nc3cc(Cl)ccc3c(NCCCCCCCCNc3c4ccc(Cl)cc4nc4ccc(OC)cc34)c2c1 98
